Hey, just so you know, these numbers are from patent US7772252B2.

target: cloned human dopamine D3 receptors (Homo sapiens, UniProt P35462); construct: expressed in transfected cells; membrane homogenate; experiment: [N-Methyl-3H]Spiroperidol binding to cloned human dopamine D3 receptors; settings: read-out: d3Ki
Sequence (P35462 whole entry): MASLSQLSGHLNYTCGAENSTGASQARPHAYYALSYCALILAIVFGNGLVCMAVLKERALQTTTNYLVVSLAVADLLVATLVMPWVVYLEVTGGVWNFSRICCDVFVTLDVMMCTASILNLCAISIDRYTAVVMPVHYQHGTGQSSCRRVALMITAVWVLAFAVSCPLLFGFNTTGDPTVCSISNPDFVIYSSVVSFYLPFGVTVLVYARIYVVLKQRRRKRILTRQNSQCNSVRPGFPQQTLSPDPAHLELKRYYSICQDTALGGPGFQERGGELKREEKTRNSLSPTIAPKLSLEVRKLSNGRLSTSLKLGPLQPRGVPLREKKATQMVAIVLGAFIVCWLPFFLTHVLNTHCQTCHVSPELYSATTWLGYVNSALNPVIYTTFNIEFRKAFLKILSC
Bucketed by reported Ki, buckets being range 1 (below 3 nM), range 2 (3 nM to below 40 nM), range 3 (40 nM or more)

{"Compound": "CC1CCCCN1C(=O)CCCN1CCN(c2csc3cc(F)ccc23)CC1 (stereo not drawn) [compound 826853]", "Group": "range 1"}
{"Compound": "CC1(C)CCCN(C(=O)CCCN2CCN(c3csc4cc(C(F)(F)F)ccc34)CC2)C1 [compound 826817]", "Group": "range 2"}
{"Compound": "CCN(C(=O)CCCN1CCN(c2csc3cc(C(F)(F)F)ccc23)CC1)C1CCCCC1 [compound 826809]", "Group": "range 3"}
{"Compound": "O=C(CCCN1CCN(c2csc3cc(F)ccc23)CC1)N(CCO)C1CCCCC1 [compound 826850]", "Group": "range 2"}
{"Compound": "O=C(CCCN1CCN(c2csc3cc(F)ccc23)CC1)NC1CCCC1 (racemic) [compound 826860]", "Group": "range 2"}
{"Compound": "CC1CCCC(NC(=O)CCCN2CCN(c3csc4cc(F)ccc34)CC2)C1 (stereo not drawn) [compound 826847]", "Group": "range 1"}
{"Compound": "CCOC(=O)C1CCN(C(=O)CCCN2CCN(c3csc4cc(F)ccc34)CC2)CC1 [compound 826851]", "Group": "range 1"}
{"Compound": "O=C(CCCN1CCN(c2csc3cc(C(F)(F)F)ccc23)CC1)NC1CCCC1 [compound 826820]", "Group": "range 3"}
{"Compound": "CN(C(=O)CCCCN1CCN(c2csc3cc(F)ccc23)CC1)c1ccc(C(C)(C)C)cc1 [compound 822140]", "Group": "range 3"}
{"Compound": "CC1CC(C)CN(C(=O)CCCN2CCN(c3csc4cc(F)ccc34)CC2)C1 (stereo not drawn) [compound 826858]", "Group": "range 2"}
{"Compound": "C[C@H]1CC[C@H](NC(=O)CCCN2CCN(c3csc4cc(F)ccc34)CC2)CC1 [compound 826844]", "Group": "range 1"}
{"Compound": "CC1CC(C)CN(C(=O)CCCN2CCN(c3csc4cc(C(F)(F)F)ccc34)CC2)C1 (stereo not drawn) [compound 826818]", "Group": "range 2"}
{"Compound": "CC1CCCN1C(=O)CCCN1CCN(c2csc3cc(C(F)(F)F)ccc23)CC1 (stereo not drawn) [compound 826822]", "Group": "range 1"}
{"Compound": "CCN(C(=O)CCCN1CCN(c2csc3cc(F)ccc23)CC1)C1CCCCC1 [compound 826849]", "Group": "range 3"}
{"Compound": "CN(C)C1CCN(C(=O)CCCN2CCN(c3csc4cc(C(F)(F)F)ccc34)CC2)C1 (stereo not drawn) [compound 826823]", "Group": "range 2"}
{"Compound": "CC1CCCN1C(=O)CCCN1CCN(c2csc3cc(F)ccc23)CC1 (stereo not drawn) [compound 826862]", "Group": "range 1"}
{"Compound": "O=C(CCCN1CCN(c2csc3cc(C(F)(F)F)ccc23)CC1)N1CCC(N2CCCC2)CC1 [compound 826816]", "Group": "range 2"}
{"Compound": "CC1CCCC(NC(=O)CCCN2CCN(c3csc4cc(C(F)(F)F)ccc34)CC2)C1 (racemic) [compound 826807]", "Group": "range 3"}
{"Compound": "CCOC(=O)[C@H]1CC[C@H](NC(=O)CCCN2CCN(c3csc4cc(F)ccc34)CC2)CC1 [compound 826845]", "Group": "range 2"}
{"Compound": "C[C@H]1CC[C@H](NC(=O)CCCN2CCN(c3csc4cc(C(F)(F)F)ccc34)CC2)CC1 [compound 826804]", "Group": "range 3"}
{"Compound": "O=C(CCCN1CCN(c2csc3cc(F)ccc23)CC1CCCc1ccccc1)N(CCO)C1CCCCC1 (stereo not drawn) [compound 827111]", "Group": "range 2"}
{"Compound": "O=C(CCCN1CCN(c2csc3cc(C(F)(F)F)ccc23)CC1)N(CCO)C1CCCCC1 [compound 826810]", "Group": "range 3"}
{"Compound": "O=C(CCCN1CCN(c2csc3cc(F)ccc23)CC1)N1CCC(N2CCCC2)CC1 [compound 826856]", "Group": "range 1"}
{"Compound": "CN(C(=O)CCCN1CCN(c2csc3cc(C(F)(F)F)ccc23)CC1)C1CCCCC1 [compound 826808]", "Group": "range 2"}
{"Compound": "O=C(CCCN1CCN(c2csc3cc(F)ccc23)CC1)NC1CCCCC1 [compound 826861]", "Group": "range 1"}
